Reported IC50 values are given for each entry in this list.
Target: IMP-1 (Serratia marcescens, UniProt P52699)
Sequence (P52699 whole entry, looked up, species assumed): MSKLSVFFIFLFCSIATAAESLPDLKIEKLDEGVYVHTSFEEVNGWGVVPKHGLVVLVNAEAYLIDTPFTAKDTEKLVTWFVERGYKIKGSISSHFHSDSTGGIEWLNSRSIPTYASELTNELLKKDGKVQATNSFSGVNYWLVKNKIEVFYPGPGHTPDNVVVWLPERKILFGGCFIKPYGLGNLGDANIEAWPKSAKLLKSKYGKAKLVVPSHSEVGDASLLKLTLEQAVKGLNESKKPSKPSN
Assay: biochemical
Format: biochemical
Settings: CCF2-FA substrate, 2 hours at 25° C; read-out: IMP-1 IC50
Expressed in nM, but write only the number.

NCCN1CCC(S(=O)(=O)c2ccc(-c3cccc4nc(N)[nH]c34)c(-c3nn[nH]n3)c2S(N)(=O)=O)CC1    2.3
Nc1nc2cccc(-c3ccc(S(=O)(=O)C4CCN(CCO)CC4)c(S(N)(=O)=O)c3-c3nn[nH]n3)c2[nH]1    0.846
N#Cc1cccc(-c2ccc(S(=O)(=O)C3CNC3)c(S(N)(=O)=O)c2-c2nn[nH]n2)c1N    1.54

Give a short answer stating reported IC50 for NCCS(=O)(=O)c1ccc(-c2ccc(C3CCNCC3)cc2)c(-c2nn[nH]n2)c1S(N)(=O)=O . 0.17

Assign IC50 to the following record: Nc1ccc(-c2ccc([S+]([O-])C3CCNCC3)c(S(N)(=O)=O)c2-c2nn[nH]n2)cn1 (centres unmarked) 27.3

Find the measured IC50 of Nc1nc2c(-c3ccc(S(=O)(=O)c4cccc(C(F)(F)F)c4)c(S(N)(=O)=O)c3-c3nn[nH]n3)cccc2s1 and report it. 0.82

---

Molecular target: NDM-1 (Klebsiella pneumoniae, UniProt C7C422)
Sequence (C7C422 whole entry, looked up, species assumed): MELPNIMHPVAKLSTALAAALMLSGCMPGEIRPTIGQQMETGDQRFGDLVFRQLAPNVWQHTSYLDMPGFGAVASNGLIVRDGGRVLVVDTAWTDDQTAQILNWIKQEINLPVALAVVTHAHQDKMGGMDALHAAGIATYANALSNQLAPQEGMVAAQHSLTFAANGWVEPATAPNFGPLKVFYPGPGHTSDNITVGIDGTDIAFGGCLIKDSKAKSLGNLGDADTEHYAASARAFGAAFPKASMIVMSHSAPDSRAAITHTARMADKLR
Experiment: biochemical
Assay type: biochemical
Conditions: CCF2-FA substrate, 2 hours at 25° C; read-out: NDM-1 IC50
Structures can show the parent of a compound that is named as a salt.
parameter-measured: IC50
I'd appreciate it if you included the unit after the number.

Record excerpt, results attached:
NCCS(=O)(=O)c1ccc(-c2cccc3cc(C(N)=O)[nH]c23)c(-c2nn[nH]n2)c1S(N)(=O)=O [Example 323]    0.0513 nM
NC[C@H](O)CS(=O)(=O)c1ccc(-c2cccc3[nH]cnc23)c(-c2nn[nH]n2)c1S(N)(=O)=O [Example 353]    0.185 nM
NCCS(=O)(=O)c1ccc(-c2cccc(N3CCCC3=O)n2)c(-c2nnn[nH]2)c1S(N)(=O)=O.O=C(O)C(F)(F)F [Example 147, 2,2,2-trifluoroacetate]    3.12 nM
NCCS(=O)(=O)c1ccc(-c2cncc3sc(N)nc23)c(-c2nn[nH]n2)c1S(N)(=O)=O [Example 81, hydrochloride]    0.29 nM
Cn1cc(C(=O)C(F)(F)F)c2c(-c3ccc(S(=O)(=O)C4CNC4)c(S(N)(=O)=O)c3-c3nnn[nH]3)cccc21 [Example 229]    0.139 nM
NCCS(=O)(=O)c1ccc(-c2ccc3nncn3c2)c(-c2nnn[nH]2)c1S(N)(=O)=O.O=C(O)C(F)(F)F [Example 146, 2,2,2-trifluoroacetate]    20.6 nM

// next item, IC50 requested
Read off the recorded IC50 for Nc1nc2c(-c3ccc(S(=O)(=O)C4CNC4)c(S(N)(=O)=O)c3-c3nn[nH]n3)cccn2n1 [Example 216] 0.102 nM

---

Target: IMP-1 (Serratia marcescens, UniProt P52699)
Test: biochemical
Format: biochemical
Conditions: CCF2-FA substrate, 2 hours at 25° C; read-out: IMP-1 IC50
Overview of recorded pIC50 for various compounds
pIC50 (log units): -log10 of the concentration in mol/L.

Known results for compounds:
CS(=O)(=O)c1ccc(-c2ccc(C3CCNCC3)cc2)c(-c2nnn[nH]2)c1S(N)(=O)=O [Example 236]    9.99
NCCS(=O)(=O)c1ccc(-c2ccc3scnc3c2)c(-c2nnn[nH]2)c1S(N)(=O)=O.O=C(O)C(F)(F)F [Example 174, 2,2,2-trifluoroacetate]    9.66

Consider the compound C[C@H](N)CS(=O)(=O)c1ccc(-c2cccc3[nH]cnc23)c(-c2nn[nH]n2)c1S(N)(=O)=O [Example 355] . State its measured pIC50. 9.49

Output measured pIC50 for this item: NCCS(=O)(=O)c1ccc(-c2ccccc2N)c(-c2nn[nH]n2)c1S(N)(=O)=O [Example 339] 8.47

Look up pIC50 of Nc1nc2cccc(-c3ccc(S(=O)(=O)[C@H]4CC[C@@H](N)CC4)c(S(N)(=O)=O)c3-c3nn[nH]n3)c2[nH]1 [Example 177] and report it. 8.87

For the compound NC[C@@H](O)CS(=O)(=O)c1ccc(-c2cccc3[nH]cnc23)c(-c2nn[nH]n2)c1S(N)(=O)=O [Example 361] , give its measured pIC50 value. 9.76

// Input: NS(=O)(=O)c1c(S(=O)(=O)C2CNC2)ccc(-c2ccc3cn[nH]c3c2)c1-c1nnn[nH]1.O=C(O)C(F)(F)F [Example 127, 2,2,2-trifluoroacetate] . Output its pIC50 only. 8.52

---

IC50 values for the compounds below.
Target: NDM-1 (Klebsiella pneumoniae, UniProt C7C422)
Assay: biochemical
Assay type: biochemical
Conditions: CCF2-FA substrate, 2 hours at 25° C; read-out: NDM-1 IC50
Answer with a number only, understood to be in nM.

Here's what some known entries look like.
NCCS(=O)(=O)c1ccc(-c2cnc(O)nc2)c(-c2nnn[nH]2)c1S(N)(=O)=O.O=C(O)C(F)(F)F [Example 137, 2,2,2-trifluoroacetate]    16.8
Nc1n[nH]c2cc(-c3ccc(S(=O)(=O)C4CNC4)c(S(N)(=O)=O)c3-c3nn[nH]n3)ccc12    0.291
CS(=O)(=O)c1ccc(-c2ccc(C3CCNCC3)cc2)c(-c2nnn[nH]2)c1S(N)(=O)=O    2.12
NCCS(=O)(=O)c1ccc(-c2ccc3c(c2)C(=O)NC3)c(-c2nnn[nH]2)c1S(N)(=O)=O.O=C(O)C(F)(F)F [Example 140, 2,2,2-trifluoroacetate]    0.844

# return IC50 for CS(=O)(=O)c1ccc(-c2ccc(NS(=O)(=O)C3CC3)cc2)c(-c2nn[nH]n2)c1S(N)(=O)=O , test system: NDM-1 (Klebsiella pneumoniae, UniProt C7C422) 0.658

Using NDM-1 (Klebsiella pneumoniae, UniProt C7C422) as the test system, report measured IC50 of NC[C@H](O)CS(=O)(=O)c1ccc(-c2cccc3sc(N)nc23)c(-c2nn[nH]n2)c1S(N)(=O)=O . 0.0561

Lab note: NDM-1 (Klebsiella pneumoniae, UniProt C7C422) assay, enter IC50 for CSc1ccc(-c2ccc(C3CCNCC3)cc2)c(-c2nnn[nH]2)c1S(N)(=O)=O here 15.7

---

Molecular target: NDM-1 (Klebsiella pneumoniae)
Experiment: biochemical
Assay type: biochemical
Details: CCF2-FA substrate, 2 hours at 25° C; read-out: NDM-1 IC50
parameter-measured: IC50

Kindly indicate its recorded IC50. Item: Nc1nc2c(-c3ccc(S(=O)(=O)CCN4CCOCC4=O)c(S(N)(=O)=O)c3-c3nn[nH]n3)cccc2s1 0.167 nM

Give IC50 for NCCS(=O)(=O)c1ccc(-c2ccc3c(c2)CC(=O)N3)c(-c2nnn[nH]2)c1S(N)(=O)=O.O=C(O)C(F)(F)F [Example 157, 2,2,2-trifluoroacetate] 1.94 nM

Note down IC50 recorded for Cn1ncc2cccc(-c3ccc(S(=O)(=O)C4CNC4)c(S(N)(=O)=O)c3-c3nnn[nH]3)c21.O=C(O)C(F)(F)F [Example 130, 2,2,2-trifluoroacetate] 0.23 nM

---

# IC50 values compiled below
Target: UniProt:P52699
Assay: biochemical
Type: biochemical
Details: CCF2-FA substrate, 2 hours at 25° C; read-out: IMP-1 IC50
Give the value, in units of nM, as a plain number.

These solved cases illustrate the format of a correct answer.
Nc1nc2c(-c3ccc(S(=O)(=O)CC(N)CO)c(S(N)(=O)=O)c3-c3nn[nH]n3)cccc2s1 (stereo not shown) [Example 96]    0.265
Cc1ccc(-c2ccc(S(=O)(=O)C3CNC3)c(S(N)(=O)=O)c2-c2nn[nH]n2)c2nc(N)sc12 [Example 32]    0.138
Nc1nc2cccc(-c3ccc(S(=O)(=O)C4CNC4)c(S(N)(=O)=O)c3-c3nn[nH]n3)n2n1 [Example 214]    3.32
C[C@H](CN)S(=O)(=O)c1ccc(-c2cccc3nc(N)[nH]c23)c(-c2nn[nH]n2)c1S(N)(=O)=O [Example 277]    1.37
NCCS(=O)(=O)c1ccc(-c2cccc(NC(=O)CN)c2NC(=O)CN)c(-c2nn[nH]n2)c1S(N)(=O)=O [Example 338]    74.9

Using the record for NCCS(=O)(=O)c1ccc(-c2cccc(-c3c[nH]c(N)n3)c2)c(-c2nnn[nH]2)c1S(N)(=O)=O [Example 346] , state its measured IC50. 1.97

Supply measured IC50 of Nc1c(-c2ccc(S(=O)(=O)C3CNC3)c(S(N)(=O)=O)c2-c2nn[nH]n2)cccc1S(N)(=O)=O [Example 287] in your reply. 2.92

---

Catalogue of compounds with associated pIC50
Target: NDM-1 (Klebsiella pneumoniae, UniProt C7C422)
Assay: biochemical
Format: biochemical
Details: CCF2-FA substrate, 2 hours at 25° C; read-out: NDM-1 IC50
Notebook: values listed as pIC50 are -log10 of the concentration (mol/L).

Here is how some compounds turned out for pIC50.
CS(=O)(=O)c1ccc(-c2ccc(N)nc2)c(-c2nn[nH]n2)c1S(N)(=O)=O [Example 237]    8.24
Nc1nc2c(-c3ccc(S(=O)(=O)[C@@H]4CCNC4)c(S(N)(=O)=O)c3-c3nn[nH]n3)cccc2o1 [Example 189]    9.66
NCCS(=O)(=O)c1ccc(-c2cccc3c2NC(=O)C3O)c(-c2nnn[nH]2)c1S(N)(=O)=O (stereo not shown) [Example 347]    8.76

For the compound CS(=O)(=O)Nc1nc2c(-c3ccc(S(=O)(=O)C4CCNCC4)c(S(N)(=O)=O)c3-c3nn[nH]n3)cccc2s1 [Example 325] , give its measured pIC50 value. 10.14
